test_method_notes: gradient 5% acetonitrile 3 min, to 50% in 2 min, to 85% in 15 min, held 3 min, 100 µL/min
conditions_used: column: Zorbax Extend-C18 2.1 x 50 mm; eluents: water / acetonitrile, 0.1% formic acid
The threshold is 800 s. Values of RP-LC retention time beneath it are tagged TRUE; values meeting or exceeding it are tagged FALSE.

Observe how each entry below is paired with its result.
[[record]]
compound = "Cc1cc(S(=O)(=O)N2CCC(n3c(-c4ccco4)nc4cccnc43)C2)ccc1F (stereo unspecified)"
assigned_class = "FALSE"

[[record]]
compound = "Cc1cc(OCC(=O)NCc2ccccc2Br)nc(N2CCN(c3ccccc3)CC2)n1"
assigned_class = "FALSE"

[[record]]
compound = "CCc1nc(-n2cccc2)sc1C(=O)Nc1ccc(C)cc1"
assigned_class = "FALSE"

[[record]]
compound = "CCC(CC)NC(=O)C1CCCCC(=O)N1 (stereo unspecified)"
assigned_class = "TRUE"

[[record]]
compound = "Cc1cccc(C)c1NC(=O)NC1CCN(c2nc3ccccc3n(C)c2=O)CC1"
assigned_class = "FALSE"

[[record]]
compound = "Cc1nc(C)c2c(n1)N(CC1CCCCC1)C(=O)CC2"
assigned_class = "TRUE"


Now turn to the next compound.
API: query returns whether the compound falls strictly under 800 s in RP-LC retention time. Query: CC(C)C(=O)Nc1ccc(CCc2nc3ccc(C(=O)NC4CCCCC4)cc3[nH]2)cc1
TRUE

* * *

test_method_notes: gradient 5% acetonitrile 3 min, to 50% in 2 min, to 85% in 15 min, held 3 min, 100 µL/min
conditions_used: column: Zorbax Extend-C18 2.1 x 50 mm; eluents: water / acetonitrile, 0.1% formic acid
parameter_measured: RP-LC retention time (s)
Answers are plain numbers, in s.

Answered examples (4):
[[record]]
compound = "Cc1ccc(-c2cn3c(CC(=O)N4CCc5ccccc54)csc3n2)cc1C"
unit_label = "s"
obs_value = 901

[[record]]
compound = "CCc1ccc(S(=O)(=O)N2CCN(Cc3nc4cc(C(C)(C)C)ccc4o3)CC2)cc1"
unit_label = "s"
obs_value = 998

[[record]]
compound = "CCCn1cc(CCNC(=O)Nc2ccc(F)cc2F)c2cccnc21"
unit_label = "s"
obs_value = 806

[[record]]
compound = "Cn1cc(CCN2CCN(S(=O)(=O)c3ccc(Cl)cc3)CC2)c2cccnc21"
unit_label = "s"
obs_value = 645


Can you give me RP-LC retention time for all of these, one by one?
1. COc1ccc(-c2noc(Cn3ncn4nc(-c5ccc(F)cc5)cc4c3=O)n2)cc1OC
2. Cc1sc2ncnc(N3CCCCC3)c2c1C(=O)NCc1cc(F)ccc1F
3. COC(=O)c1ccc2c(=O)n(CCc3ccccc3)c(N3CCSC3)nc2c1

1000
1020
1110

* * *

test_method_notes: gradient 5% acetonitrile 3 min, to 50% in 2 min, to 85% in 15 min, held 3 min, 100 µL/min
conditions_used: column: Zorbax Extend-C18 2.1 x 50 mm; eluents: water / acetonitrile, 0.1% formic acid
parameter_measured: RP-LC retention time (s)
Answers are plain numbers, in s.

[[record]]
molecule = "Cc1ccc2nc(NC(=O)C3CCN(S(=O)(=O)c4cn(C(C)C)cn4)CC3)sc2c1"
unit_label = "s"
obs_value = 849


Can you give me RP-LC retention time for all of these, one by one?
1. COc1ccc(-c2cc3n(n2)CCCN(C(=O)Nc2ccccc2F)C3)cc1OC
2. CCCNC(=O)C1CCCN(c2nc3ncn(CC(=O)NCc4ccccc4)c(=O)c3s2)C1 (centres undefined)
3. Cc1ccc(NC(=O)N2CCN(CCn3cnc4cccnc43)CC2)cc1Cl

1: 885; 2: 669; 3: 636

* * *

Give measured RP-LC retention time for each item. Keep answers brief.
test_method_notes: gradient 5% acetonitrile 3 min, to 50% in 2 min, to 85% in 15 min, held 3 min, 100 µL/min
conditions_used: column: Zorbax Extend-C18 2.1 x 50 mm; eluents: water / acetonitrile, 0.1% formic acid
Give bare numbers, in s.

Answered examples (2):
[[record]]
compound = "O=C(Nc1nnc(SCc2nnc(-c3ccc4c(c3)OCO4)o2)s1)c1cccs1"
parameter_measured = "RP-LC retention time"
unit_label = "s"
obs_value = 815

[[record]]
compound = "Cc1cccc2c(=O)n(C)c(CCC(=O)NCc3cc(F)ccc3F)nc12"
parameter_measured = "RP-LC retention time"
unit_label = "s"
obs_value = 814


So for CC(NS(=O)(=O)c1ccc(Cl)c(-c2nnc(-c3ccccc3)o2)c1)C(=O)O (stereo not drawn) , the logged RP-LC retention time turned out to be 819

* * *

test_method_notes: gradient 5% acetonitrile 3 min, to 50% in 2 min, to 85% in 15 min, held 3 min, 100 µL/min
conditions_used: column: Zorbax Extend-C18 2.1 x 50 mm; eluents: water / acetonitrile, 0.1% formic acid
The threshold is 700 s. Values of RP-LC retention time beneath it are tagged MET; values meeting or exceeding it are tagged NOT MET.

Observe how each entry below is paired with its result.
[[record]]
molecule = "COc1ccc(-c2c(NC(=O)c3ccco3)oc3c(C)cccc3c2=O)cc1OC"
assigned_class = "NOT MET"

[[record]]
molecule = "Fc1ccc(Cc2noc(-c3nc(-c4ccncc4)no3)n2)cc1"
assigned_class = "NOT MET"

[[record]]
molecule = "O=S(=O)(c1cc(-c2nnc(C3CCC3)o2)co1)N1CCC(N2CCCCC2)CC1"
assigned_class = "MET"

[[record]]
molecule = "O=S(=O)(c1cc(-c2nnc(C3CCC3)o2)co1)N1CCN(c2ccccc2)CC1"
assigned_class = "NOT MET"

[[record]]
molecule = "Cc1ccc(C(=O)C2=C(O)C(=O)N(c3ncccn3)C2c2cccc(Cl)c2)o1 (stereo not given)"
assigned_class = "NOT MET"


Now turn to the next molecule.
API: query returns whether the molecule falls strictly under 700 s in RP-LC retention time. Query: O=C(Nc1ccc2nc3n(c(=O)c2c1)CCCCC3)C(=O)N1CCCCCC1
NOT MET

* * *

Give measured RP-LC retention time for each item. Keep answers brief.
test_method_notes: gradient 5% acetonitrile 3 min, to 50% in 2 min, to 85% in 15 min, held 3 min, 100 µL/min
conditions_used: column: Zorbax Extend-C18 2.1 x 50 mm; eluents: water / acetonitrile, 0.1% formic acid
Numbers only, in s.

Answered examples (4):
[[record]]
compound = "CCOCCCNC(=O)N1CC(c2nc(C)no2)C2(CCOCC2)C1 (configuration not stated)"
parameter_measured = "RP-LC retention time"
obs_value = 616

[[record]]
compound = "O=C(CCn1nnc2cc(-c3noc(COc4ccc(Cl)cc4)n3)ccc21)N1CCCC1"
parameter_measured = "RP-LC retention time"
obs_value = 942

[[record]]
compound = "CCCCNc1nc(-c2ccc(Cl)cc2)nc2ccccc12"
parameter_measured = "RP-LC retention time"
obs_value = 873

[[record]]
compound = "CCOc1cccc(CN2CCc3nc(N4CCN(c5ccccc5)CC4)ncc3C2)c1"
parameter_measured = "RP-LC retention time"
obs_value = 785


Can you give me RP-LC retention time for all of these, one by one?
1. CN(C)C[C@@H]1CN(c2ccncn2)C[C@H]1NC(=O)c1nccc2ccccc12
2. O=C(NCCCN1CCCC1=O)C1CCN(c2ncnc3c2oc2ccccc23)CC1
3. CCOc1ccc(-c2noc(N3CCC(C(=O)N4CCCCC4)CC3)n2)cc1OC

557
602
889

Can you give me RP-LC retention time for all of these, one by one?
1. Cc1cc(C(N)=O)c2cc(F)ccc2n1
2. CCc1ccc(NC(=O)N2CCc3nc(-c4ccc(Cl)cc4)ncc3C2)cc1
3. CC1(C(=O)NCc2ccc(F)cc2)CCCN(C(=O)NCCc2ccccc2)C1 (configuration not stated)
4. CCCC(=O)NCCc1csc(-c2ccc(Cl)cc2)n1
5. CCOC(=O)c1ccc(NC(=O)C2CCCN(S(C)(=O)=O)C2)cc1 (configuration not stated)

1: 544; 2: 1150; 3: 857; 4: 921; 5: 762

* * *

test_method_notes: gradient 5% acetonitrile 3 min, to 50% in 2 min, to 85% in 15 min, held 3 min, 100 µL/min
conditions_used: column: Zorbax Extend-C18 2.1 x 50 mm; eluents: water / acetonitrile, 0.1% formic acid
parameter_measured: RP-LC retention time (s)
One number for each entry, in s.

Answered examples (6):
[[record]]
compound = "CCCN(CC1CCOC1)C(=O)Nc1ccccc1OC (stereo not given)"
obs_value = 821

[[record]]
compound = "COc1ccc(-c2c(C(=O)Nc3cc(OC)ccc3OC)nc3ccccn23)cc1"
obs_value = 1030

[[record]]
compound = "O=C(c1ccc(F)c(F)c1)N1CCCC1c1nc(-c2ccccc2)no1 (stereo not given)"
obs_value = 653

[[record]]
compound = "Cc1ccc(NC(=O)Nc2cnn(-c3ncc(N4CCCC4)cn3)c2)c(Cl)c1"
obs_value = 844

[[record]]
compound = "CCN1C(=O)c2cccc3c(NC(=O)Cc4cccs4)ccc1c23"
obs_value = 718

[[record]]
compound = "O=C(OCCCNc1nc(-c2ccc(Cl)cc2)nc2ccccc12)c1cccs1"
obs_value = 804


Can you give me RP-LC retention time for all of these, one by one?
1. O=C(C1CCN(c2ccc(Sc3ccccc3)nn2)CC1)N1CCOCC1
2. COc1ccc(CC(=O)Nc2nnc(C3CC(=O)N(c4ccc(Cl)cc4)C3)o2)cc1 (stereo not given)
3. Cc1ccc(C(=O)N(CCCN)[C@@H](c2oc3cc(Cl)ccc3c(=O)c2Cc2ccccc2)C(C)C)cc1
4. Cc1n[nH]c(C)c1CCC(=O)NCc1c(F)cccc1F
5. O=C(C1=CN(c2ccc(F)c(Cl)c2)c2ccccc2S1(=O)=O)N1CCCC1
6. Cc1ccc(-c2noc(Cn3ccn(-c4ccccc4C)c(=O)c3=O)n2)cc1
7. Cc1nc2cc(-c3noc(-c4ccc(C#N)cc4)n3)ccc2o1

1. 647
2. 761
3. 863
4. 526
5. 817
6. 680
7. 1010

Can you give me RP-LC retention time for all of these, one by one?
1. COc1cccc(CNC(=O)Cc2cn(C)c3ncccc23)c1OC
2. COc1cc(=O)n2c(c1C(=O)Nc1ccc(Cl)c(Cl)c1)CCCC2
3. CC(=O)NCc1ccc(-c2noc(-c3cc(Cl)ccc3F)n2)s1
4. Cc1ccc(C)c(NC(=O)Cc2csc3nc(-c4ccccc4)cn23)c1
5. CN1C(=O)c2cc(C(=O)NCCCc3ccccc3)nn2CC1(C)C(=O)NCc1ccccc1 (stereo not given)
6. Cc1cc(C)n(C(=O)COc2ccc(Cl)cc2C)n1
7. Cc1nn(-c2nc(-c3ccc(Cl)cc3)cs2)c(C)c1CC(=O)N1CCCCC1C (stereo not given)

1. 669
2. 823
3. 888
4. 845
5. 814
6. 1160
7. 1310
